targetSystem: UniProt:P71278
testDetails: Stopped-flow FMN reduction (reductive half-reaction, hydride transfer) of WT PETNR by coenzyme
conditionSet: 5 °C; 10 mM NADPH or 25 mM NADH; pH 7.0
The following compounds are listed with their measured kobs1 values.
Answer in s⁻¹, number only, no unit symbol.

Completed entries (count: 3):
INSERT INTO assay_data (compound, outputunit, observedmeasurement) VALUES
  ('NC(=O)C1=CN([C@@H]2O[C@H](COP(=O)(O)OP(=O)(O)OC[C@H]3O[C@@H](n4cnc5c(N)ncnc54)[C@H](O)[C@@H]3O)[C@@H](O)[C@H]2O)C=CC1', 's⁻¹', 0.73),
  ('[2H][C@@H]1C=CN([C@@H]2O[C@H](COP(=O)(O)OP(=O)(O)OC[C@H]3O[C@@H](n4cnc5c(N)ncnc54)[C@H](O)[C@@H]3O)[C@@H](O)[C@H]2O)C=C1C(N)=O [(R)-[4-^2H]-NADH]', 's⁻¹', 0.091),
  ('NC(=O)C1=CN([C@@H]2O[C@H](COP(=O)(O)OP(=O)(O)OC[C@H]3O[C@@H](n4cnc5c(N)ncnc54)[C@H](OP(=O)(O)O)[C@@H]3O)[C@@H](O)[C@H]2O)C=CC1', 's⁻¹', 11.31);

We next turn to a different compound, shown below.
# lookup: kobs1 of [2H][C@@H]1C=CN([C@@H]2O[C@H](COP(=O)(O)OP(=O)(O)OC[C@H]3O[C@@H](n4cnc5c(N)ncnc54)[C@H](OP(=O)(O)O)[C@@H]3O)[C@@H](O)[C@H]2O)C=C1C(N)=O [(R)-[4-^2H]-NADPH]
1.51

---

targetSystem: L25A PETNR (Enterobacter cloacae, UniProt P71278, L26A)
Sequence (P71278 entry or part of it L26A): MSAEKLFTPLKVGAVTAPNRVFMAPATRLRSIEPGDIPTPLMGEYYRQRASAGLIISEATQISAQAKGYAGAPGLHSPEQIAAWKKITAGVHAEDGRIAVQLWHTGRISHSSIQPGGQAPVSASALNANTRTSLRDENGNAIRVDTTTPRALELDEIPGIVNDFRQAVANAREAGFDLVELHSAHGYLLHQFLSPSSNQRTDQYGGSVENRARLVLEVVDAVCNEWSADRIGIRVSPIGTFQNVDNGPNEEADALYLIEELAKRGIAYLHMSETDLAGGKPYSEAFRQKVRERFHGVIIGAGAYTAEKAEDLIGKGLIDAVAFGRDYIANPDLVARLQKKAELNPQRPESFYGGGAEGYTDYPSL
conditionSet: 10 °C; 10 mM NADPH or 25 mM NADH; pH 7.0
The following compounds are listed with their measured kobs1 values.
Answer in s⁻¹, number only, no unit symbol.

INSERT INTO results (compound, assaymetric, observedmeasurement) VALUES
  ('NC(=O)C1=CN([C@@H]2O[C@H](COP(=O)(O)OP(=O)(O)OC[C@H]3O[C@@H](n4cnc5c(N)ncnc54)[C@H](OP(=O)(O)O)[C@@H]3O)[C@@H](O)[C@H]2O)C=CC1', 'kobs1', 26.03),
  ('[2H][C@@H]1C=CN([C@@H]2O[C@H](COP(=O)(O)OP(=O)(O)OC[C@H]3O[C@@H](n4cnc5c(N)ncnc54)[C@H](OP(=O)(O)O)[C@@H]3O)[C@@H](O)[C@H]2O)C=C1C(N)=O [(R)-[4-^2H]-NADPH]', 'kobs1', 3.33),
  ('NC(=O)C1=CN([C@@H]2O[C@H](COP(=O)(O)OP(=O)(O)OC[C@H]3O[C@@H](n4cnc5c(N)ncnc54)[C@H](O)[C@@H]3O)[C@@H](O)[C@H]2O)C=CC1', 'kobs1', 1.61);

We next turn to a different compound, shown below.
# lookup: kobs1 of [2H][C@@H]1C=CN([C@@H]2O[C@H](COP(=O)(O)OP(=O)(O)OC[C@H]3O[C@@H](n4cnc5c(N)ncnc54)[C@H](O)[C@@H]3O)[C@@H](O)[C@H]2O)C=C1C(N)=O [(R)-[4-^2H]-NADH]
0.211

---

The following compounds are listed with their measured A2 (amplitude of kobs2 out of total absorbance change) values.
targetSystem: L25A PETNR (Enterobacter cloacae, UniProt P71278, L26A)
conditionSet: 40 °C; 10 mM NADPH or 25 mM NADH; pH 7.0
Answer in %, number only, no unit symbol.

INSERT INTO measurements (compound, observedmeasurement) VALUES
  ('[2H][C@@H]1C=CN([C@@H]2O[C@H](COP(=O)(O)OP(=O)(O)OC[C@H]3O[C@@H](n4cnc5c(N)ncnc54)[C@H](O)[C@@H]3O)[C@@H](O)[C@H]2O)C=C1C(N)=O [(R)-[4-^2H]-NADH]', 34.60),
  ('NC(=O)C1=CN([C@@H]2O[C@H](COP(=O)(O)OP(=O)(O)OC[C@H]3O[C@@H](n4cnc5c(N)ncnc54)[C@H](O)[C@@H]3O)[C@@H](O)[C@H]2O)C=CC1', 20.40),
  ('[2H][C@@H]1C=CN([C@@H]2O[C@H](COP(=O)(O)OP(=O)(O)OC[C@H]3O[C@@H](n4cnc5c(N)ncnc54)[C@H](OP(=O)(O)O)[C@@H]3O)[C@@H](O)[C@H]2O)C=C1C(N)=O [(R)-[4-^2H]-NADPH]', 31.19);

We next turn to a different compound, shown below.
# lookup: A2 (amplitude of kobs2 out of total absorbance change) of `NC(=O)C1=CN([C@@H]2O[C@H](COP(=O)(O)OP(=O)(O)OC[C@H]3O[C@@H](n4cnc5c(N)ncnc54)[C@H](OP(=O)(O)O)[C@@H]3O)[C@@H](O)[C@H]2O)C=CC1`
25.54

---

targetSystem: L25I PETNR (Enterobacter cloacae, UniProt P71278, L26I)
Sequence (P71278 entry or part of it L26I): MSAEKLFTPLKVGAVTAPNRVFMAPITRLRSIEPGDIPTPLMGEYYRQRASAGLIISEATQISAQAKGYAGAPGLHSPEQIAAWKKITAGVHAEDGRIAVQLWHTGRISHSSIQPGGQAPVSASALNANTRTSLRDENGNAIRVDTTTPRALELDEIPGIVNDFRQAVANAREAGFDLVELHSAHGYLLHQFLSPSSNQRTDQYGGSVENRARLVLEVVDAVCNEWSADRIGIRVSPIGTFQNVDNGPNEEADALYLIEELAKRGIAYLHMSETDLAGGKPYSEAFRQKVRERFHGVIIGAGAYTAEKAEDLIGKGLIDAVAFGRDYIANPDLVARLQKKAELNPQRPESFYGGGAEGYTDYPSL
conditionSet: T0 = 298 K, fit of kobs1 (5–40 °C) to eq 1
The following compounds are listed with their measured ΔHT0^⧧ values.
Answer in kJ mol^–1, number only, no unit symbol.

INSERT INTO results (compound, observedmeasurement) VALUES
  ('NC(=O)C1=CN([C@@H]2O[C@H](COP(=O)(O)OP(=O)(O)OC[C@H]3O[C@@H](n4cnc5c(N)ncnc54)[C@H](OP(=O)(O)O)[C@@H]3O)[C@@H](O)[C@H]2O)C=CC1 [NADPH]', 30.4);

# lookup: ΔHT0^⧧ of NC(=O)C1=CN([C@@H]2O[C@H](COP(=O)(O)OP(=O)(O)OC[C@H]3O[C@@H](n4cnc5c(N)ncnc54)[C@H](O)[C@@H]3O)[C@@H](O)[C@H]2O)C=CC1 [NADH]
42.7

# lookup: ΔHT0^⧧ of [2H][C@@H]1C=CN([C@@H]2O[C@H](COP(=O)(O)OP(=O)(O)OC[C@H]3O[C@@H](n4cnc5c(N)ncnc54)[C@H](O)[C@@H]3O)[C@@H](O)[C@H]2O)C=C1C(N)=O [(R)-[4-^2H]-NADH]
44.9

# lookup: ΔHT0^⧧ of [2H][C@@H]1C=CN([C@@H]2O[C@H](COP(=O)(O)OP(=O)(O)OC[C@H]3O[C@@H](n4cnc5c(N)ncnc54)[C@H](OP(=O)(O)O)[C@@H]3O)[C@@H](O)[C@H]2O)C=C1C(N)=O [(R)-[4-^2H]-NADPH]
36.7
